- assayComment: qHTS assay to identify small molecule agonists of H2AX - cell viability counter screen (AID 1224847);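 further: wild-type CHO-K1 cells; top concentration of the series differs between compounds; nearly all actives have a fitted effect of over 30% in size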
- runConditions: CHO-K1 viability, CellTiter-Glo luminescence, 3 h; series mostly up to 154 µM
Inconclusive results are not listed. Calls of active or inactive are those of the source. The call rests on the fitted dose curve.
Pick one and only one: True for active, False for inactive

Below are worked cases with known answers.
> print(dat)
                                   compound  group
1                      Clc1ccc2c(Cl)ccnc2c1  False
2                         Cc1ccc2n[nH]nc2c1  False
3                               C=CC(C)(C)O  False
4  CC(CC(C)(C)C)CC(C)(C)CC(C)(C)C (stereo unspecified)  False

Hey, what did the test say about `CCN(CC)c1ccc(C=O)c(O)c1` ?
False

Hey, what did the test say about `CC(C)(C)c1cc(CCC(=O)OCCSCCOC(=O)CCc2cc(C(C)(C)C)c(O)c(C(C)(C)C)c2)cc(C(C)(C)C)c1O` ?
False

Hey, what did the test say about C=CC(=O)OCC(Br)CBr (stereo unspecified) ?
False

Origin of the recorded values: PubChem BioAssay (Tox21)
